Where do the numbers come from? From patent US8673862.

- Measured Target: T1, angiotensin converting enzyme (ACE) (UniProt P12821)
- T1 chain: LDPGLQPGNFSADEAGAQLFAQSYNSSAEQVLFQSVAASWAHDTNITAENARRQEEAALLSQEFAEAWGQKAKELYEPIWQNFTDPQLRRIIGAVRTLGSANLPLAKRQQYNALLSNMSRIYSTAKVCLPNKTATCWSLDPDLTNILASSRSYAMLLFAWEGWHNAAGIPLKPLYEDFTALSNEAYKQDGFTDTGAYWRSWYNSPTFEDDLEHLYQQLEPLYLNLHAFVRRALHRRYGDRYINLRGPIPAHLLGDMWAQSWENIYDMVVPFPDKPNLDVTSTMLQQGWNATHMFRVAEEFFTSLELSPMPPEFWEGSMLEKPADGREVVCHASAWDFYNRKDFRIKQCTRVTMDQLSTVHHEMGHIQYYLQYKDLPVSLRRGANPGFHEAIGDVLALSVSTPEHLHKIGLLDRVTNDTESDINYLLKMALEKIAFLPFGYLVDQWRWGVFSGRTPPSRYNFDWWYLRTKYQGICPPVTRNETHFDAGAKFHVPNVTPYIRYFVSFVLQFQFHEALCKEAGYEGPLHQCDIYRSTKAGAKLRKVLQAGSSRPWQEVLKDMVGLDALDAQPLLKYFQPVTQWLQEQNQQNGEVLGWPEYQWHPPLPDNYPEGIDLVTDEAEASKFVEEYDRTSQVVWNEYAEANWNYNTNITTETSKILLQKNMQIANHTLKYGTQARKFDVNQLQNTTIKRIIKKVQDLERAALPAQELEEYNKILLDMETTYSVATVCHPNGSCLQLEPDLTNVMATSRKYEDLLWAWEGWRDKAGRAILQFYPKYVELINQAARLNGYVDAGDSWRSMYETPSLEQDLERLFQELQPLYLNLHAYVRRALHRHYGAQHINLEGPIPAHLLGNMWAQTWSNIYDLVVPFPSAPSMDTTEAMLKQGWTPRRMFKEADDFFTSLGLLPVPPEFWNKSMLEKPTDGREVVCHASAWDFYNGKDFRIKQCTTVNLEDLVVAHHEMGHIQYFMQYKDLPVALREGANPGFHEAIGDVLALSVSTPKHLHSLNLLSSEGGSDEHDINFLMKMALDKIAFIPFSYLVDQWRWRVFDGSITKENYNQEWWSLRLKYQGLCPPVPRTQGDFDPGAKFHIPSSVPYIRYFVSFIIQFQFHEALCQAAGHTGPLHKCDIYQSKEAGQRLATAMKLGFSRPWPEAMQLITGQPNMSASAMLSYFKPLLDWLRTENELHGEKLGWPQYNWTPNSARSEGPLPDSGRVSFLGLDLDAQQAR
- Test Protocol: other, ACE inhibition
Measurement Type: IC50 (µM)

Solved entries (count: 5):
1) PDT: 272
2) TF: 46.2
3) NSL: 64.9
4) LL: 345
5) TSF: 15.6

(1) FVNHF
(2) FV
Task: # returns the entry with the larger IC50; inputs 1 and 2 // return label of chosen record
Output: 2

(A) LF
(B) KK
Task: Given A and given B , which shows the smaller recorded IC50? // return label of chosen record
Output: A
